Study target: human ASCT1 neutral amino acid transporter (Homo sapiens)
Construct: expressed in transfected cells; host or cells: Xenopus laevis oocytes injected with in vitro transcribed RNA (pOTV vector)
Sequence (P43007 whole entry): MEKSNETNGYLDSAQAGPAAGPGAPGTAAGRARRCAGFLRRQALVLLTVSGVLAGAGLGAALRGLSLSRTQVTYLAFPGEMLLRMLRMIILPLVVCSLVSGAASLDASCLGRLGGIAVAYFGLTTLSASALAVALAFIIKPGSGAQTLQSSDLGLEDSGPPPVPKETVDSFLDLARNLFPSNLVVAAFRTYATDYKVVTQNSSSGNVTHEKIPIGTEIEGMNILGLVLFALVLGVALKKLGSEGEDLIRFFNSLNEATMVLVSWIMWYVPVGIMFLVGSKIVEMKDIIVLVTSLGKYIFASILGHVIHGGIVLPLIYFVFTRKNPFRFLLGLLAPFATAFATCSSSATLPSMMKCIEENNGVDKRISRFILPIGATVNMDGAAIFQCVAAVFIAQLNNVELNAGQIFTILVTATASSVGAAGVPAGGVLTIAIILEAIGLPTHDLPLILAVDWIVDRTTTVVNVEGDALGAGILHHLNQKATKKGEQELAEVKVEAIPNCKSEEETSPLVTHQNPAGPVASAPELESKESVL
Experiment description: amino acid-induced inward current in voltage-clamped ASCT1-injected Xenopus oocytes
Assay type: cell-based
Test settings: L-stereoisomer; current normalized to the maximum response obtained with L-alanine; mean ± standard error
Can you tell me Imax (maximal current) for the items I'm about to list?
Field format: numeric only.

Which Imax (maximal current) value is on record for `N[C@@H](CS)C(=O)O` ?
1.0

// Imax (maximal current) lookup, key: `N[C@@H](CO)C(=O)O`
1.2

Requested read-out: Imax (maximal current). Entry: `CC(C)[C@H](N)C(=O)O`
0.6

Fill in the blank: the reported Imax (maximal current) of `C[C@@H](O)[C@H](N)C(=O)O` is ____.
1.4

---

Study target: human EAAT1 (Homo sapiens, UniProt P43003)
Construct: expressed in transfected cells; host or cells: COS-7 cells, pCMV5 construct, DEAE-dextran transient transfection
Sequence (P43003 whole entry): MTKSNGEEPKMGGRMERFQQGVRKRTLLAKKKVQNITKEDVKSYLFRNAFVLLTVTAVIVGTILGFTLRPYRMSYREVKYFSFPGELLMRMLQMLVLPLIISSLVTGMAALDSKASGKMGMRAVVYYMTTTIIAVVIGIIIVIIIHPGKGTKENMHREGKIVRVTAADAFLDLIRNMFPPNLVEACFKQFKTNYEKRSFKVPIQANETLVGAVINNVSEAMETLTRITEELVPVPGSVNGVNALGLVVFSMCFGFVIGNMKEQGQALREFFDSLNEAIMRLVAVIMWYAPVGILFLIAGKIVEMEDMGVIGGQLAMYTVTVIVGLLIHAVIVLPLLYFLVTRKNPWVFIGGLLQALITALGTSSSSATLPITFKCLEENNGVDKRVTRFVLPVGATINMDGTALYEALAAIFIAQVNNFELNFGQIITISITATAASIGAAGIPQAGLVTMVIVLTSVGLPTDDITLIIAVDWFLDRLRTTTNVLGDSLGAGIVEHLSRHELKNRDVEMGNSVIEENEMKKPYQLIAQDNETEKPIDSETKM
Experiment description: inhibition of [3H]-L-glutamate uptake in COS-7 cells expressing EAAT1
Type: cell-based
Test settings: read-out: Ki, glutamate uptake inhibition constant, EAAT1
Measured property: Ki (µM)
Reply with just the number (in µM).

Name the recorded Ki for `N[C@@H](CS(=O)O)C(=O)O` .
14

Entry N[C@H](C(=O)O)[C@H](O)C(=O)O [THA, L-threo-β-hydroxyaspartate] has what Ki?
32

If you can, please state the reported Ki value of O=C(O)[C@H]1CN[C@H](C(=O)O)C1 [PDC, L-trans-pyrrolidine-2,4-dicarboxylate] .
79

For N[C@@H](CC(=O)NO)C(=O)O [L-aspartate-β-hydroxymate] , what is its reported Ki?
369

---

Study target: human EAAT3 (Homo sapiens, UniProt P43005)
Construct: isolation of Clone GT11B containing a full-length open reading frame encoding EAAT3; expressed in transfected cells; host or cells: COS-7 cells, pCMV5 construct, DEAE-dextran transient transfection
Sequence (P43005 whole entry): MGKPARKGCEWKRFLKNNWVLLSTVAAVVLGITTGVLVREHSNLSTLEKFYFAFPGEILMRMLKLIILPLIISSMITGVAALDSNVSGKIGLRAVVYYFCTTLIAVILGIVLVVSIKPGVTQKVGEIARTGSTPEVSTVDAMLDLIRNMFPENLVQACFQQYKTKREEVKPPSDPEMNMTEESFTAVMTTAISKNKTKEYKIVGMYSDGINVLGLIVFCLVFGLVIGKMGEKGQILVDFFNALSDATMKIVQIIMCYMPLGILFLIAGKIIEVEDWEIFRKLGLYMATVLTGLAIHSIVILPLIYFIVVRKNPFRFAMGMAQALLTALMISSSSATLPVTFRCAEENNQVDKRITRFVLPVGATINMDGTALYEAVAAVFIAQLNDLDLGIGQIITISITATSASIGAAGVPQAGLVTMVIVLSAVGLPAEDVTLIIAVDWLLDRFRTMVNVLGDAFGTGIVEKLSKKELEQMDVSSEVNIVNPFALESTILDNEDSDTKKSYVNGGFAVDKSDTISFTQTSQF
Experiment description: inhibition of [3H]-L-glutamate uptake in COS-7 cells expressing EAAT3
Type: cell-based
Test settings: uptake of 1 μM [3H]-L-glutamate; bound given in mM; read-out: Ki, glutamate uptake inhibition constant, EAAT3
Measured property: Ki

# lookup: Ki of C=C(C)[C@H]1CN[C@H](C(=O)O)[C@H]1CC(=O)O [KAI, kainate]
> 1 mM
